ASSAY INFO: Surface tension by pendant drop method, water/air interface
Format: physicochemical
STATED CONDITIONS: concentration 0.50 wt %
ENDPOINT LABEL: Water/air interface (surface tension) (mN/m)

[
  {
    "COMPOUND": "CCCc1cc(OC)c([O-])c(OC)c1.[Na+] [PSNa, 4-propylsyringol sodium salt]",
    "Water/air interface (surface tension) [mN/m]": 39.8
  },
  {
    "COMPOUND": "CCCc1cc(OC)c(O)c(OC)c1",
    "Water/air interface (surface tension) [mN/m]": 34.9
  }
]

* * *

ASSAY INFO: Surface tension by pendant drop method, water/air interface
Type: physicochemical
STATED CONDITIONS: concentration 0.20 wt %
ENDPOINT LABEL: Water/air interface (surface tension) (mN/m)

1: CCCCCCCCCCCCOS(=O)(=O)[O-].[Na+] [SLS, sodium lauryl sulfate]
2: CCCCC(CC)COC(=O)CC(C(=O)OCC(CC)CCCC)S(=O)(=O)[O-].[Na+] (centres unmarked) [DOSS, Dioctyl Sodium Sulfosuccinate]
Task: Identify the entry with the larger Water/air interface (surface tension). Options: 1 and 2 Answer by stating the label of the chosen item.
Result: 2
(2: 51 mN/m, 1: 35.4 mN/m)

Data provenance is patent US20260001828A1.
